Tested on: MDA-MB-435 melanoma
Assay: NCI-60 one-dose screen, 48 h (100 = growth as untreated, 0 = no growth, -100 = all killed)
Conditions: 10 µM unless noted
About 83,000 compounds went through this panel and 20% of them were active in at least one assay; those are over-represented in the sample as a whole. Activity calls are given as the source filed them. Rule for the calls: active = growth percent below 10; inactive = the rest.
measuredProperty: growth

Short answer for COc1cc(-n2nc(C(=O)Nc3ccc(C(=O)O)cc3)nc2-c2ccccc2)cc(OC)c1OC : growth was 113% (inactive)

Short answer for COc1cccc2cc(-c3cc4ccccc4[nH]3)c(=NC(=O)c3ccc(Cl)cc3)oc12 : growth was 33.1% (inactive)

Short answer for CCCCCCCCCCCCCCCCCCOc1cccc(CCOP(=O)(O)OCC[N+](C)(C)C)c1 : growth was 93.6% (inactive)

Short answer for C=C1C(=O)O[C@H]2[C@H]1CC/C(COC(=O)NCCc1cccc(OC)c1)=C\CC[C@@]1(C)O[C@@H]21 : growth was 39.6% (inactive)

Short answer for CC(=O)Nc1ccc2c(c1)/C(=C\C=C/c1ccc([N+](C)(C)C)cc1)c1ccccc1-2 : growth was 96% (inactive)

Short answer for COc1ccc(-n2c(C)cc(-c3ccccc3)c2C)cc1 : growth was 12.1% (inactive)

Short answer for CC(C)(C)c1cc(-c2nc3ccc(N4CCN(CCO)CC4)cc3[nH]2)cc(C(C)(C)C)c1O : growth was 6.38% (active)

Short answer for COC(=O)c1ccc2nc(-c3cc4ccccc4n3C)n(CCCCOc3cc4c(cc3OC)C(=O)N3CCC[C@H]3C=N4)c2c1 : growth was -88.6% (active)

Short answer for CCN1C(=O)/C(=c2\sc3n(c2=O)C2C(NN=3)N(CC)C(=S)N2CC)c2ccccc21 (centres undefined) : growth was 88.4% (inactive)

Short answer for COc1ccccc1CNCCCN1C(=O)c2ccc3c4c(ccc(c24)C1=O)C(=O)N(CCCNCCCCNCCCCN)C3=O : growth was -59.7% (active)

Short answer for c1cncc(CNc2ccccc2-c2nnc(Nc3ccc4c(c3)OCCO4)o2)c1 : growth was -20.3% (active)

Short answer for COc1ccc(/C=C2\CCCC3=C2NC(C)=NC3c2ccc(OC)c(OC)c2)cc1OC (centres undefined) : growth was 1.49% (active)

Short answer for CN1C(=O)[C@H]2c3c1cccc3[C@@]13NC(=O)O[C@H]1[C@H](CCC3(C)C)C2(C)C : growth was 102% (inactive)

Short answer for O=C(CNc1c(Cl)cccc1Cl)Nc1ccc(-c2nc3ccccc3s2)cc1 : growth was 67.9% (inactive)

Short answer for CCOC(=O)/C=C\C(=O)NC(N)=O : growth was 106% (inactive)

Short answer for c1ccc(CCn2nnc3c(Nc4ccc(N5CCOCC5)cc4)ncnc32)cc1 : growth was 23.8% (inactive)

Short answer for Cc1cc(C)c(NC(=O)c2sc3nc4c(cc3c2N)CN(Cc2ccccc2)CC4)c(C)c1 : growth was -18.6% (active)

Short answer for CC(=O)N1Cc2ccccc2C(C)Cc2cc(Cl)ccc21 (centres undefined) : growth was 106% (inactive)

Short answer for COc1cc2c(cc1OCCCCn1c(-c3cc(=O)c4ccccc4o3)nc3ccccc31)N=C[C@@H]1CCCN1C2=O : growth was 94.9% (inactive)
